target: NPM-ALK (Homo sapiens, UniProt Q9UM73); construct: nucleophosmin (NPM, NPM1; human P06748) fusion partner; expressed in transfected cells; host or cells: murine BaF3 cells (DSMZ), transfected with pCIneo (Promega) coding for NPM-ALK and selected with G418; the other entry of the earlier key: Npm1 (Q61937, Nucleophosmin); assay: NPM-ALK BaF3 assay (growth inhibition of BaF3-NPM-ALK cells); type: cell-based; conditions: human NPM-ALK overexpressing murine BaF3 cells
Sequence (Q9UM73 with tags, fused parts or gaps): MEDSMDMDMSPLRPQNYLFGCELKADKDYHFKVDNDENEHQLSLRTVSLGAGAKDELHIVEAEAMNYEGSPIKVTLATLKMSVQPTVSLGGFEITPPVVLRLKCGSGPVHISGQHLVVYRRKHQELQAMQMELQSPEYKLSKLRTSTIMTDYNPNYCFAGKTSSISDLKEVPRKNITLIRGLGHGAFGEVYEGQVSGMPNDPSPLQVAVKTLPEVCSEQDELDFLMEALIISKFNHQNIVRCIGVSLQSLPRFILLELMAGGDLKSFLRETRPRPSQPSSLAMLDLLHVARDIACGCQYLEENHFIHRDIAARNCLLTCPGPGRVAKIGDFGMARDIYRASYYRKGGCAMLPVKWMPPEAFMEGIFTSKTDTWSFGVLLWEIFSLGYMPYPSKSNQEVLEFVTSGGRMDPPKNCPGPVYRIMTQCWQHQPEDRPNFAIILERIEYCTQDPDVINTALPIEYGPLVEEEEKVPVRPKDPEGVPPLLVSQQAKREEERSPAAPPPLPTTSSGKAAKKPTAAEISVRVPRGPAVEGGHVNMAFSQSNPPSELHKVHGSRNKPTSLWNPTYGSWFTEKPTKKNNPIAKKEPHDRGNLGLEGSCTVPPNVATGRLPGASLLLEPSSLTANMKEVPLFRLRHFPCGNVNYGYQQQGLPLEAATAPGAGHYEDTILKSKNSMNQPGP
Please go through the items and note down their IC50.
Give bare numbers, in nM.

// below: answered compounds
record_smiles=COc1cc(C2CCN(C(=O)[C@H](C)N3CC[C@H](O)C3)CC2)c(C)cc1Nc1nc(Nc2ccccc2S(=O)(=O)C(C)C)n2nccc2n1 reported_measurement=36
record_smiles=COc1cc(C2CCN(C(=O)[C@H](C)N3CC[C@@H](O)C3)CC2)c(C)cc1Nc1nc(Nc2ccccc2S(=O)(=O)C(C)C)n2nccc2n1 reported_measurement=38
record_smiles=CNC1(C(=O)N2CCC(c3cc(OC)c(Nc4nc(Nc5ccccc5S(=O)(=O)C(C)C)n5nccc5n4)cc3C)CC2)CC1 reported_measurement=25
record_smiles=COc1cc(C2CCN(C(=O)CNC(C)(C)C)CC2)c(C)cc1Nc1nc(Nc2ccccc2S(=O)(=O)C(C)C)n2nccc2n1 reported_measurement=53
record_smiles=COc1cc(C2CCN(C(=O)CNC(C)C)CC2)c(C)cc1Nc1nc(Nc2ccccc2S(=O)(=O)C(C)C)n2nccc2n1 reported_measurement=32

Now consider a different compound.
I have this compound here, "COc1cc(C2CCN(C(=O)[C@H](C)N)CC2)c(C)cc1Nc1nc(Nc2ccccc2S(=O)(=O)C(C)C)n2nccc2n1" , and I need its recorded IC50. 40

Source: patent US8518931B2
